- Test system: R. sanguineus tick larvae
- COND: pure compound, concentration 100 μmol/m^2; motility reduction over 9 min
Structures can show the parent of a compound that is named as a salt.
Knockdown Median (Q1-Q3) [%] by entry:

Solved entries:
| COMPOUND | MEASUREMENT |
| --- | --- |
| C1=CC[C@@H](c2cccnc2)NC1 [(S)-anatabine dihydrochloride] | 23.8% |
| c1cncc([C@@H]2CCCN2)c1 [(S)-nornicotine] | 9% |
| CCN(CC)C(=O)c1cccc(C)c1 [DEET, N,N-Diethyl-m-toluamide] | 5.2% |

Turning to the following compound.
Specify measured Knockdown Median (Q1-Q3) [%] for c1cncc([C@@H]2CCCCN2)c1 [(S)-anabasine] . 6.0%
